target: T1, MHC class I molecule A*0201 (biotin (bound to streptavidin-coated plate)); test: iTopia iScore
T1 construct: also called A2; HLA-A2
Use iScore to assign classes; range list: Low (below 0.03), Mid (0.03 to below 0.2), High (0.2 or more)

Past entries and their recorded results:
{"columns": ["binder", "assigned class"],
 "data": [
  ["SNHFLYLPR [5T4 9-mer peptide 110 SNHFLYLPR]", "Mid"],
  ["ADLSPFAFS [5T4 9-mer peptide 78 ADLSPFAFS]", "Mid"],
  ["TEVPTDLPA [5T4 9-mer peptide 42 TEVPTDLPA]", "Low"],
  ["ILNHIVPPE [5T4 9-mer peptide 90 ILNHIVPPE]", "High"],
  ["IVPPEDERQ [5T4 9-mer peptide 92 IVPPEDERQ]", "Low"]
]}

Asked: Bin this entry: LLAGRALQG [5T4 9-mer peptide 102 LLAGRALQG]
Given back: Mid

Asked: Bin this entry: EHLPSLRQL [5T4 9-mer peptide 70 EHLPSLRQL]
Given back: Mid

Asked: Bin this entry: PAGAFARRP [5T4 9-mer peptide 54 PAGAFARRP]
Given back: Low

Asked: Bin this entry: AALNLSGSR [5T4 9-mer peptide 61 AALNLSGSR]
Given back: Low
